assay: Pharmacokinetic evaluation following a single oral and intravenous administration; format: in vivo, CD1 mouse; conditions: CD1, mouse, plasma, po, 5 mg/kg, Table 5, PO Dose: 5 mg/kg, 1 h, Mouse 6; read-out: Concentration
ATTRIBUTE_MEASURED: concentration at 1 h (ng/mL)
Only the number, expressed in ng/mL, is required.

I have this molecule here, `CNCc1ccc(C[C@H](NC(C)=O)c2nnc(-c3cccc(OC(F)(F)F)c3)s2)cc1` , and I need its recorded concentration at 1 h.
136

====

test: Pharmacokinetic evaluation following a single oral and intravenous administration; type: in vivo, CD1 mouse; settings: CD1, mouse, plasma, iv, 1 mg/kg, Table 9, IV Dose: 1 mg/kg, 0.25 h, Mouse 1; read-out: Concentration
ATTRIBUTE_MEASURED: concentration at 0.25 h (ng/mL)
Report only the number, with the unit ng/mL understood.

What concentration at 0.25 h value was documented for this compound, CC(=O)N[C@@H](Cc1ccc(CN(C)C)cc1)c1nnc(-c2cccc(OC(F)(F)F)c2)s1 [Compound 42320] ?
68.4

// provenance: patent US11033535B2
